# Tested on: Q7 cells (ST HDH Q7/7; immortalized mouse striatal cells)
# experiment: Q7 cystine deprivation cell survival assay (96-well, Calcein AM)
# Assay type: cell-based
# measurement_context: Mus musculus; rescue of Q7 cells from cystine deprivation, 18 hours, Calcein AM fluorescence, 96-well
# Description: In neuronal cells excess extracellular glutamate inhibits the cystine/glutamate antiporter leading to intracellular cysteine depletion, GSH depletion, ROS production and cell death, a phenomenon termed oxidative glutamate toxicity or oxytosis. Q7 cells (ST HDH Q7/7; immortalized mouse striatal cells) challenged with cystine-free media recapitulate this phenotype. An initial screen was performed to identify compounds effective in rescuing Q7 cells from death resulting from cystine deprivation. […]
pEC50: −log10 of the molar value.
outcome_measure: pEC50

>>> print(df.to_string())
                        structure_as_smiles  outcome_measure        result
0  CC1=C(C)C(=O)C(CCCCCCCCC(F)(F)F)=C(C)C1=O            pEC50  6.00 to 6.30
1     COCCCCCCCCCCC1=C(C)C(=O)C(C)=C(C)C1=O            pEC50  6.00 to 6.30
2       COCCCCCCCCC1=C(C)C(=O)C(C)=C(C)C1=O            pEC50  6.00 to 6.30
3  CC1=C(C)C(=O)C(CCCCCCCCCCOCC(F)(F)F)=C(C)C1=O            pEC50        > 6.30
4  CC1=C(C)C(=O)C(C(C)C)=C(CCCCCCCCCCC(F)(F)F)C1=O            pEC50        > 6.30
5  CC1=C(C)C(=O)C(CCCCCCCCCCC(F)(F)F)=C(C)C1=O            pEC50        > 6.30
6  CC1=C(C)C(=O)C(CCCCCCCCOCC(F)(F)F)=C(C)C1=O            pEC50  6.00 to 6.30

====

Reported pEC50 values follow for various compounds
# Tested on: Q7 cells (ST HDH Q7/7; immortalized mouse striatal cells)
# experiment: 384-Well Cell Titer Glo (CTG) Q7 Cystine Deprivation Survival Assay
# Format: cell-based
# measurement_context: 18 h, read-out: Q7 Cystine Free CTG 384 CSA (EC50)
pEC50: −log10 of the molar value.
outcome_measure: pEC50

                        structure_as_smiles        result
0  CC1=C(C)C(=O)C(CCCCCCCCCCOc2ccccc2)=C(C)C1=O        > 7.00
1  CC1=C(C)C(=O)C(CCCCCCCCCCOC(C)C)=C(C)C1=O        > 7.00
2   CCCOCCCCCCCCCCC1=C(C)C(=O)C(C)=C(C)C1=O        > 7.00
3  CC1=C(C)C(=O)C(CCCCCCCCOc2cccnc2C)=C(C)C1=O  6.30 to 7.00
4      CCOCCCCCCCCC1=C(C)C(=O)C(C)=C(C)C1=O        > 7.00
5   CC1=C(C)C(=O)C(CCCCCCCCOC(C)C)=C(C)C1=O        > 7.00
6  CC1=C(C)C(=O)C(CCCCCCCCOCC(C)C)=C(C)C1=O        > 7.00
7  CC1=C(C)C(=O)C(CCCCCCCCCCOCC(C)C)=C(C)C1=O        > 7.00
8  CC1=C(C)C(=O)C(CCCCCCCCCCNCC(C)C)=C(C)C1=O        > 7.00
9         COCCCCCCC1=C(C)C(=O)C(C)=C(C)C1=O  6.30 to 7.00
